molecular target: IRAK4 (Homo sapiens (Human)); experiment: Western blot assay for assessing degradation of IRAK4 in MCF7 cells; format: cell-based; conditions: Table 5, IRAK4 degradation, 24 hour incubation, read-out: IRAK4 DC50
Quantity name: DC50

The cases that follow already have their DC50 on record.
Cc1ncsc1-c1ccc(CNC(=O)[C@@H]2C[C@@H](O)CN2C(=O)[C@@H](NC(=O)COCCOCCN2CCN(Cc3ccc4c(c3)nc(NC(=O)c3cccc(C(F)(F)F)c3)n4[C@H]3CC[C@@H](CO)CC3)CC2)C(C)(C)C)cc1 (racemic) [compound 12] :: ≥ 1000 nM
CN(CCOCCOCCOc1ccc2c(c1)C(=O)N(C1CCC(=O)NC1=O)C2=O)c1cccc(-n2c(NC(=O)c3cccc(C(F)(F)F)c3)nc3cc(F)ccc32)c1 (stereo not shown) [compound 49] :: ≥ 1000 nM
N#Cc1ccc2ncnc(N[C@H]3CC[C@@H](N4CCN(S(=O)(=O)CCOCCOCCOCCOCCOc5ccc6c(c5)C(=O)N(C5CCC(=O)NC5=O)C6=O)CC4)CC3)c2c1 (stereo partly shown) [compound 41] :: ≥ 1000 nM
O=C1CCC(N2C(=O)c3ccc(OC4CCC(CN5CCN(Cc6ccc7c(c6)nc(NC(=O)c6cccc(C(F)(F)F)c6)n7C6CCC(CO)CC6)CC5)CC4)cc3C2=O)C(=O)N1 (stereo not shown) [compound 67] :: 30 to 100 nM

[in] Which value of DC50 has been reported for O=C1CCC(N2C(=O)c3ccc(OCCOCCOCCOC[C@H]4CC[C@@H](n5c(NC(=O)c6cccc(C(F)(F)F)c6)nc6cc(F)ccc65)CC4)cc3C2=O)C(=O)N1 (stereo partly shown) [compound 47] in the records?
[out] ≥ 1000 nM

[in] And then N#Cc1ccc2ncnc(N[C@H]3CC[C@H](N4CCN(CCOCCOc5ccc6c(c5)C(=O)N(C5CCC(=O)NC5=O)C6=O)CC4)CC3)c2c1 (stereo partly shown) [compound 30] , what is it?
[out] ≥ 1000 nM

[in] How about this molecule: Cc1ccc(-n2nc(N3CCN(CCOCCOCCOCC(=O)N[C@H](C(=O)N4C[C@H](O)C[C@H]4C(=O)NCc4ccc(-c5scnc5C)cc4)C(C)(C)C)CC3)cc2NC(=O)c2cnn3cccnc23)nc1 [compound 27]
[out] ≥ 1000 nM

[in] Please give the result for CN(CCOc1ccc2c(c1)C(=O)N(C1CCC(=O)NC1=O)C2=O)c1cccc(-n2c(NC(=O)c3cccc(C(F)(F)F)c3)nc3cc(F)ccc32)c1 (stereo not shown) [compound 50] too.
[out] ≥ 1000 nM

[in] And what about the molecule O=C1CCC(N2C(=O)c3ccc(OCCOCCOCCN4CCN(Cc5ccc6c(c5)nc(NC(=O)c5cccc(C(F)(F)F)c5)n6[C@H]5CC[C@@H](CO)CC5)CC4)cc3C2=O)C(=O)N1 (stereo partly shown) [compound 3] ?
[out] < 30 nM

[in] Also need O=C1CCC(N2C(=O)c3ccc(OCCN4CCN(Cc5ccc6c(c5)nc(NC(=O)c5cccc(C(F)(F)F)c5)n6[C@H]5CC[C@@H](CO)CC5)CC4)cc3C2=O)C(=O)N1 (stereo partly shown) [compound 1] , thanks.
[out] 100 to 300 nM

----------
# DC50 per record follows
molecular target: IRAK4 (Homo sapiens (Human), UniProt Q9NWZ3); test: Western blot assay for assessing degradation of IRAK4 in MCF7 cells; type: cell-based; conditions: Table 5, IRAK4 degradation, 24 hour incubation, read-out: IRAK4 DC50
Sequence (Q9NWZ3 whole entry): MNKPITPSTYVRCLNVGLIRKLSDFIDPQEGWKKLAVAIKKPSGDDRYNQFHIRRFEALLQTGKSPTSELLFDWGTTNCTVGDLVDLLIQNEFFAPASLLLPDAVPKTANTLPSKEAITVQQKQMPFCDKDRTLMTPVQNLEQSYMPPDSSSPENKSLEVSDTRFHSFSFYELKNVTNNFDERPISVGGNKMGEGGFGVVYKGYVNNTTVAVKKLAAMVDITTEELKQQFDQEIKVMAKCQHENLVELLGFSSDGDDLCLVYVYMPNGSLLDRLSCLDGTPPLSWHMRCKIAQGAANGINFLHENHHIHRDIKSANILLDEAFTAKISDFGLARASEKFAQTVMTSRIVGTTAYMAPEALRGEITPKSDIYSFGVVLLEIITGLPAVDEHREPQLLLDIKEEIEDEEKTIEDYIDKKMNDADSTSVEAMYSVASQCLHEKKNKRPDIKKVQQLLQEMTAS

Use the examples below as a reference point.
N#Cc1ccc2ncnc(N[C@H]3CC[C@@H](N4CCN(S(=O)(=O)CCOCCOc5ccc6c(c5)C(=O)N(C5CCC(=O)NC5=O)C6=O)CC4)CC3)c2c1 (some centres unmarked) :: ≥ 1000 nM
N#Cc1ccc2ncnc(N[C@H]3CC[C@H](N4CCN(CCOCCOCCOc5ccc6c(c5)C(=O)N(C5CCC(=O)NC5=O)C6=O)CC4)CC3)c2c1 (some centres unmarked) :: ≥ 1000 nM
O=C1CCC(N2C(=O)c3ccc(OCCOCCOCCOCCOC[C@H]4CC[C@@H](n5c(NC(=O)c6cccc(C(F)(F)F)c6)nc6cc(F)ccc65)CC4)cc3C2=O)C(=O)N1 (some centres unmarked) :: ≥ 1000 nM

Shift focus to the following entry.
[in] Looking for the measured DC50 of CN(CCOCCOc1ccc2c(c1)C(=O)N(C1CCC(=O)NC1=O)C2=O)c1cccc(-n2c(NC(=O)c3cccc(C(F)(F)F)c3)nc3cc(F)ccc32)c1 (centres unmarked) , can you help?
[out] ≥ 1000 nM

----------
molecular target: IRAK4 (Homo sapiens (Human), UniProt Q9NWZ3); assay: ELISA assay for IRAK4 degradation in MCF7 cells; format: cell-based; conditions: Table 1, 24 hours
Recorded IRAK4 by ELISA % degraded, one value per entry.
Give the value in % but do not write % after it.

O=C1CCC(N2C(=O)c3ccc(OCCOCCOCCN4CCN(Cc5ccc6c(c5)nc(NC(=O)c5cccc(C(F)(F)F)c5)n6[C@H]5CC[C@@H](CO)CC5)CC4)cc3C2=O)C(=O)N1 (stereo partly shown) :: 86
O=C1CCC(N2C(=O)c3ccc(OCCOCCOCCOCCOCCN4CCN(Cc5ccc6c(c5)nc(NC(=O)c5cccc(C(F)(F)F)c5)n6[C@H]5CC[C@@H](CO)CC5)CC4)cc3C2=O)C(=O)N1 (stereo partly shown) :: 80
O=C1CCC(N2C(=O)c3ccc(OCCOCCOCCOCCN4CCN(Cc5ccc6c(c5)nc(NC(=O)c5cccc(C(F)(F)F)c5)n6[C@H]5CC[C@@H](CO)CC5)CC4)cc3C2=O)C(=O)N1 (stereo partly shown) :: 89

[in] What value of measured IRAK4 by ELISA % degraded is listed for O=C1CCC(N2C(=O)c3ccc(OCCOCCN4CCN(Cc5ccc6c(c5)nc(NC(=O)c5cccc(C(F)(F)F)c5)n6C5CCC(CO)CC5)CC4)cc3C2=O)C(=O)N1 (stereo not shown) ?
[out] 76

----------
molecular target: IRAK4 (Homo sapiens (Human)); assay: Western blot assay for assessing degradation of IRAK4 in MCF7 cells; format: cell-based; conditions: Table 5, IRAK4 degradation, 24 hour incubation, read-out: IRAK4 Dmax (%)
Quantity name: Dmax

COc1cc2nn(C3CCN(CCOCCOCCOc4ccc5c(c4)C(=O)N(C4CCC(=O)NC4=O)C5=O)CC3)cc2cc1NC(=O)c1cccc(C(F)(F)F)n1 (stereo not drawn) :: 50 to 70%
Cc1ncsc1-c1ccc(CNC(=O)[C@@H]2C[C@@H](O)CN2C(=O)[C@@H](NC(=O)COCCN2CCN(Cc3ccc4c(c3)nc(NC(=O)c3cccc(C(F)(F)F)c3)n4C3CCC(CO)CC3)CC2)C(C)(C)C)cc1 (mixture of isomers) :: > 70%
O=C1CCC(N2C(=O)c3ccc(OCCOCCOCCN4CCN(Cc5ccc6c(c5)nc(NC(=O)c5cccc(C(F)(F)F)c5)n6[C@H]5CC[C@@H](CO)CC5)CC4)cc3C2=O)C(=O)N1 (stereo partly drawn) :: > 70%
O=C1CCC(N2C(=O)c3ccc(OCCOCCN4CCN(Cc5ccc6c(c5)nc(NC(=O)c5cccc(C(F)(F)F)c5)n6C5CCC(CO)CC5)CC4)cc3C2=O)C(=O)N1 (stereo not drawn) :: 50 to 70%
COc1cc2nn(C3CCN(CCOCCOc4ccc5c(c4)CN(C4CCC(=O)NC4=O)C5=O)CC3)cc2cc1NC(=O)c1cccc(C(F)(F)F)n1 (stereo not drawn) :: 50 to 70%

[in] # input compound: COc1cc2nn(C3CCN(CCOCCOc4ccc5c(c4)C(=O)N(C4CCC(=O)NC4=O)C5=O)CC3)cc2cc1NC(=O)c1cccc(C(F)(F)F)n1 (stereo not drawn) ; wanted: its Dmax
[out] 50 to 70%

[in] Item: O=C1CCC(N2C(=O)c3ccc(OCCN4CCC(CN5CCN(Cc6ccc7c(c6)nc(NC(=O)c6cccc(C(F)(F)F)c6)n7C6CCC(CO)CC6)CC5)CC4)cc3C2=O)C(=O)N1 (stereo not drawn)
[out] > 70%

[in] Moving on to COc1cc2nn(C3CCN(CC4CCN(CCOc5ccc6c(c5)C(=O)N(C5CCC(=O)NC5=O)C6=O)CC4)CC3)cc2cc1NC(=O)c1cccc(C(F)(F)F)n1 (stereo not drawn)
[out] > 70%

[in] Entry to check: O=C1CCC(N2C(=O)c3ccc(OC4CCC(CN5CCN(Cc6ccc7c(c6)nc(NC(=O)c6cccc(C(F)(F)F)c6)n7C6CCC(CO)CC6)CC5)CC4)cc3C2=O)C(=O)N1 (stereo not drawn)
[out] > 70%

[in] Another compound to check: O=C1CCC(N2C(=O)c3ccc(N4CCC(CN5CCN(Cc6ccc7c(c6)nc(NC(=O)c6cccc(C(F)(F)F)c6)n7[C@H]6CC[C@@H](CO)CC6)CC5)CC4)cc3C2=O)C(=O)N1 (stereo partly drawn)
[out] > 70%

[in] Request: CC1CCC(n2c(NC(=O)c3cccc(C(F)(F)F)c3)nc3cc(CN4CCN(CCOCCOc5ccc6c(c5)C(=O)N(C5CCC(=O)NC5=O)C6=O)CC4)ccc32)CC1 (stereo not drawn)
[out] 30 to 50%

[in] Can you handle O=C1CCC(N2C(=O)c3ccc(OCCN4CCN(Cc5ccc6c(c5)nc(NC(=O)c5cccc(C(F)(F)F)c5)n6C5CCC(CO)CC5)CC4)cc3C2=O)C(=O)N1 (stereo not drawn) next?
[out] 30 to 50%

Reference source: patent US11065231B2
